Molecular target: free FIXa (activated Factor IX) (UniProt P00740 47-191; P00740 227-461)
Test: BLI
Measurement Type: Kd (nM)

BIIB-9-1281 (antibody, V domains shown) VH: QVQLQQWGAGLLKPSETLSLTCAVYGGSFSGYYWSWIRQPPGKGLEWIGEIDHSGSTNYNPSLKSRVTISVDTSKNQFSLKLSSVTAADTAVYYCARTTRSKYYGMDVWGQGTMVTVSS VL: DIQMTQSPSTLSASVGDRVTITCRASQSISSWLAWYQQKPGKAPKLLIYKASSLESGVPSRFSGSGSGTDFTLTISSLQPEDFATYYCQQAISLPITFGGGTKVEIK ... 16.8
BIIB-9-590 (antibody, V domains shown) VH: QVQLVQSGAEVKKPGASVKVSCKASGYTFTSYYMHWVRQAPGQGLEWMGIINPSGGSTSYAQKFQGRVTMTRDTSTSTVYMELSSLRSEDTAVYYCARDQEWAYYGMDVWGQGTTVTVSS VL: EIVLTQSPATLSLSPGERATLSCRASQSVSSYLAWYQQKPGQAPRLLIYDASNRATGIPARFSGSGSGTDFTLTISSLEPEDFAVYYCQQVDNFPLTFGGGTKVEIK ... 11.3
BIIB-9-565 (antibody, V domains shown) VH: QLQLQESGPGLVKPSETLSLTCTVSGGSISSSSYYWGWIRQPPGKGLEWIGSIYYSGSTYYNPSLKSRVTISVDTSKNQFSLKLSSVTAADTAVYYCARAGMYSSYANWFDPWGQGTLVTVSS VL: EIVLTQSPATLSLSPGERATLSCRASQSVSSYLAWYQQKPGQAPRLLIYDASNRATGIPARFSGSGSGTDFTLTISSLEPEDFAVYYCQQDSNLPFTFGGGTKVEIK ... 15.8
